Assay: NCI Yeast Anticancer Drug Screen. Data for the sgs1 mgt1 strain (AID 161);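 note: 0% = growth of cultures given vehicle only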
Conditions: S. cerevisiae sgs1 mgt1 strain, at 50.0 µM, stronger effect = higher value
Compounds without any hit were thinned out: in the full panel of roughly 79,000, 15% have a hit.
Answer each item with its documented growth inhibition.
Please reply with the bare figure in % and do not write the unit itself.

Enquiry: State its growth inhibition for this compound: C=C(C)[C@@H]1CC[C@]2(CO)CC[C@]3(C)[C@H](CC[C@@H]4[C@@]5(C)CC[C@H](O)C(C)(C)[C@@H]5CC[C@]43C)[C@@H]12
Return: -18.1

Enquiry: Please give measured growth inhibition of the following entry: O=c1cc(Cl)nc2ccccn12
Return: -11

Enquiry: For the compound CCC(=O)Oc1c(C)cc(O)c2ccccc12 , give its reported growth inhibition.
Return: 18.7

Enquiry: Assign growth inhibition to the following record: CC(=O)NC(CCC(=O)c1ccccc1)C(=O)O (centres undefined)
Return: 17.3

Enquiry: Output growth inhibition of CCOC(OCC)C(=O)c1ccccc1
Return: -4.1

Enquiry: Supply measured growth inhibition of OCCOc1ccc(-c2cc(-c3ccccn3)nc(-c3ccccn3)c2)cc1 in your reply.
Return: 43

Enquiry: Please give the documented growth inhibition of CC(=O)NCNC(C)=O
Return: 3.75

Enquiry: Quote growth inhibition reported for COc1ccc(Br)c(C=O)c1 please.
Return: -5.65

Enquiry: Identify growth inhibition associated with the compound COc1cc2c(c(OC)c1OC)-c1ccc(SC)c(=O)cc1[C@@H](NC1OC(CO)C(O)C(O)C1O)CC2 (some centres undefined)
Return: 5.25

Enquiry: Return growth inhibition for the following compound: O=C(O)c1ccc([N+](=O)[O-])cc1S(=O)(=O)O
Return: -24.3

Enquiry: Look up and state reported growth inhibition for Cc1ccc2nc(-c3ccc(N=Cc4ccccc4O)cc3)sc2c1
Return: 6.5

Enquiry: Answer with reported growth inhibition of COc1ccc(-c2csc(NC(=O)Nc3nc(-c4ccc(OC)cc4)cs3)n2)cc1
Return: 0.7

Enquiry: Tell me measured growth inhibition for CC(C)C1CCC(C)C(O)C1 (centres undefined) please.
Return: 8.55

Enquiry: Consider the compound Cc1cccc(C)c1NC(=S)/N=C\c1c(O)[nH]c(=O)[nH]c1=O and give its recorded growth inhibition.
Return: -32.3

Enquiry: Tell me its growth inhibition given Cc1ccc(N)c(S(=O)(=O)O)c1 as the entry.
Return: 0.75

Enquiry: Return the recorded growth inhibition value; entry: O=[N+]([O-])c1ccc(-c2nc(N(CCO)CCO)c3ccccc3n2)o1
Return: 88.8

Enquiry: Using the record for OCCNc1ccccc1 , state its measured growth inhibition.
Return: 2.75

Enquiry: # return recorded growth inhibition for entry CCCCCCCCCCCCCC/C=C\C(CC(=O)O)C(=O)O (centres undefined)
Return: 6.1

Enquiry: Tell us which growth inhibition value is on record for CC(=O)OCC1OC(n2cnc3c(=S)nc(N)[nH]c32)C(OC(C)=O)C1OC(C)=O (centres undefined)
Return: 48.5

Enquiry: Read the entry COC1OC(COC(C)=O)C(OC(C)=O)C(OC(C)=O)C1OC(C)=O (centres undefined) and write its reported growth inhibition.
Return: 47.2

Enquiry: Retrieve growth inhibition measured for Cc1[nH]n(-c2ccccc2)c(=O)c1C=NC(=S)C(N)=S and print it.
Return: -20.4

Enquiry: State, in one line, measured growth inhibition of O=c1[nH]c(=O)c2cc(Cl)cc(Cl)c2[nH]1
Return: -1.4

Enquiry: For the compound NNC(=O)N/N=C1\C(=O)N(c2nccs2)C(=O)C(=O)C1c1nc2ccccc2s1 (centres undefined) , give its reported growth inhibition.
Return: -33

Enquiry: Retrieve growth inhibition measured for COc1cc(C(=O)N2CCN(c3ccccc3)CC2)c2ccccc2n1 and print it.
Return: 10.7
